# assay_system: Histone deacetylase 8 (Homo sapiens)
# Sequence (Q9BY41 whole entry): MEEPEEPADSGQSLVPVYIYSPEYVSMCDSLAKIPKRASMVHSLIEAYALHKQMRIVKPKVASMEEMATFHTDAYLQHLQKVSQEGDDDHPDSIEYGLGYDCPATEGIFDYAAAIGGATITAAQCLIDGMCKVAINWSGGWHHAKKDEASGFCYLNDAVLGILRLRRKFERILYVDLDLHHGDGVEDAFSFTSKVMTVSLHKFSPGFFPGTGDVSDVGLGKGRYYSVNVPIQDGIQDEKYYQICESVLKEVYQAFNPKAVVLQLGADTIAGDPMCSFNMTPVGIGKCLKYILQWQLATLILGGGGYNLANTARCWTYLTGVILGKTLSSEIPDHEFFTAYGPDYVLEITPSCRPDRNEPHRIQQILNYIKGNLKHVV
observable: IC50 (nM)

INSERT INTO results (structure_smiles, observable, obs_value) VALUES
  ('Oc1cccn(Cc2cn(-c3ccccc3)nn2)c1=S', 'IC50', 1570);
